- EXPERIMENTAL_PROTOCOL: Tissue distribution of 18F imaging agents in rats
- Format: in vivo, Male Sprague Dawley rats
- CONDITION_LABEL: rat, iv tail vein ~15 μCi, 60 min post injection, ± SEM
MEASURED_ATTRIBUTE: Lung, imaging agent distribution at 60 min (% ID/g)

Sample records with Lung, imaging agent distribution at 60 min:
1) [2H]C([2H])(OCCF)c1ccc(COc2cnn(C(C)(C)C)c(=O)c2Cl)cc1 [Example 67E] ... 0.34
2) CC(C)(C)n1ncc(OCc2ccc(C(=O)OCCF)cc2)c(Cl)c1=O [Example 67J] ... 0.42
3) CC(C)n1ncc(OCc2ccc(COCCF)cc2)c(Cl)c1=O [Example 67H] ... 0.42
4) CC(C)(C)n1ncc(OCc2ccc(Oc3cccnc3F)cc2)c(Cl)c1=O [Example 67O] ... 0.15

(a) CC(C)(C)n1ncc(OCc2ccc(OCCCF)c(Cl)c2)c(Cl)c1=O [Example 67C]
(b) CC(C)(C)n1ncc(OCc2ccc(-c3cnc(F)nc3)cc2)c(Cl)c1=O [Example 67L]
Asked: Please indicate which has the smaller reported Lung, imaging agent distribution at 60 min: a , or b . # reply format: chosen label
Given back: b

(P) CC(C)(C)n1ncc(CCc2ccc(COCCF)cc2)c(Cl)c1=O [Example 67M]
(Q) CC(C)(C)n1ncc(OCc2ccc(OCCOCCF)cc2)c(Cl)c1=O [Example 67B]
Asked: // returns P or Q , whichever has the lower Lung, imaging agent distribution at 60 min Output the label that corresponds to your choice.
Given back: Q
(Q: 0.27 % ID/g, P: 1.03 % ID/g)

(1) CC(C)(C)n1ncc(OCc2ccc(C#CCCF)cc2)c(Cl)c1=O [Example 67K]
(2) CC(C)(C)n1ncc(OCc2cccc(OCCF)c2)c(Cl)c1=O [Example 67F]
Asked: In terms of reported Lung, imaging agent distribution at 60 min, does 1 or 2 have the smaller number? Reply with the label of the item you choose.
Given back: 1

(1) CC(OCCF)c1ccc(COc2cnn(C(C)(C)C)c(=O)c2Cl)cc1 (centres unmarked) [Example 67G]
(2) CC(C)(C)n1ncc(OCc2cccc(COCCF)c2)c(Cl)c1=O [Example 67A]
(3) CC(C)(C)n1ncc(OCc2ccc(OCCF)cc2)c(Cl)c1=O [Example 67D]
(4) Cc1c(OCc2ccc(COCCF)cc2)cnn(C(C)(C)C)c1=O [Example 67I]
Asked: // ranking: key=Lung, imaging agent distribution at 60 min, reverse=True Write the labels out in the order the request specifies.
Given back: 3, 1, 4, 2
(3: 0.96 % ID/g, 1: 0.38 % ID/g, 4: 0.19 % ID/g, 2: 0.11 % ID/g)

----------
- EXPERIMENTAL_PROTOCOL: Tissue distribution of 18F imaging agents in rats
- Assay type: in vivo, Male Sprague Dawley rats
- CONDITION_LABEL: rat, iv tail vein ~15 μCi, 15 min post injection, ± SEM
MEASURED_ATTRIBUTE: Heart, imaging agent distribution at 15 min (% ID/g)

Below, each entry is followed by its recorded Heart, imaging agent distribution at 15 min result.
1. CC(C)(C)n1ncc(OCc2ccc(OCCCF)c(Cl)c2)c(Cl)c1=O [Example 67C] ... 4.21
2. CC(C)(C)n1ncc(OCc2ccc(OCCF)cc2)c(Cl)c1=O [Example 67D] ... 3.63

(I) [2H]C([2H])(OCCF)c1ccc(COc2cnn(C(C)(C)C)c(=O)c2Cl)cc1 [Example 67E]
(II) CC(C)(C)n1ncc(OCc2ccc(C#CCCF)cc2)c(Cl)c1=O [Example 67K]
Asked: Parameter check: reported Heart, imaging agent distribution at 15 min is higher for which label, I or II ? Response format: the label of the selected entry.
Given back: I

(a) CC(C)(C)n1ncc(OCc2ccc(OCCOCCF)cc2)c(Cl)c1=O [Example 67B]
(b) CC(C)(C)n1ncc(CCc2ccc(COCCF)cc2)c(Cl)c1=O [Example 67M]
Asked: // returns a or b , whichever has the lower Heart, imaging agent distribution at 15 min Your choice should be expressed through its label.
Given back: a

Data origin: patent US9713651B2
